procedure.text: qHTS of pediatric cancer cell lines to identify multiple opportunities for drug repurposing: Primary screen for OHS-50 cells (AID 1347103); further: nearly all actives have a fitted effect of over 40% in size; further: potency means the concentration at half of the fitted maximal effect
reported.conditions: OHS-50 osteosarcoma viability, CellTiter-Glo luminescence, 48 h; series mostly up to 57.3 µM
Results filed as inconclusive are left out. Activity calls are given as the source filed them. The call rests on the fitted dose curve; in most records, active means well fitted cell-killing curve with a large enough effect; inconclusive means small, poorly fitted or top-dose-only effect; inactive means no such curve, though single readings can be large or run the other way.
measured.endpoint: Potency

Previously resolved entries follow.
CCCC(C)(COC(N)=O)COC(=O)NC(C)C (stereo not given) ... inactive
C#CCN(C)[C@H](C)Cc1ccccc1 ... inactive
Cc1ccc(-c2nc3ccc(C)cn3c2CC(=O)N(C)C)cc1 ... inactive
N[C@@H](Cc1ccc(Oc2cc(I)c(O)c(I)c2)c(I)c1)C(=O)O ... inactive

INPUT: May I ask what Potency has been recorded for CC1=C2C[C@@H]3[C@@H](CC=C4C[C@@H](O)CC[C@@]43C)[C@@H]2CC[C@]12O[C@H]1C[C@H](C)CN[C@H]1[C@H]2C ?
OUTPUT: 30.6 µM (active)
